Kindly supply the reported melting point values for the records listed here.
Where a name gives a salt, the structure may show the parent alone.

Field: example entries. Status: answers known.
- COC(=O)C1=C(CCc2ccccc2NS(C)(=O)=O)NC(CC(=O)N2CCN(C3CC4CCC(C3)N4C)CC2)=C(C(=O)OC)C1c1c(Cl)cccc1Cl (stereo not shown) (as salt: HCl): 143 °C
- COC(=O)C1=C(CCc2ccccc2COCCN2CCCC2)NC(CC(=O)N2CCN(C3CC4CCC(C3)N4C)CC2)=C(C(=O)OC)C1c1c(Cl)cccc1Cl.O=C(O)CCC(=O)O (stereo not shown): 168 °C (dec.)
- COC(=O)C1=C(CCc2ccccc2C(=O)N2CCNCC2)NC(CC(=O)N2CCN(C3CC4CCC(C3)N4C)CC2)=C(C(=O)OC)C1c1c(Cl)cccc1Cl (stereo not shown) (as salt: HCl): 198 to 200 °C (dec.)

Look up melting point for the entries below, preserving their order.
1. CCN(CC)Cc1ccccc1CCC1=C(C(=O)OC)C(c2c(Cl)cccc2Cl)C(C(=O)OC)=C(CC(=O)N2CCN(C3CC4CCC(C3)N4C)CC2)N1 (stereo not shown) (as salt: HCl)
2. CNC(=O)CCC(=O)NCc1ccccc1CCC1=C(C(=O)OC)C(c2c(Cl)cccc2Cl)C(C(=O)OC)=C(CC(=O)N2CCN(C3CC4CCC(C3)N4C)CC2)N1 (stereo not shown) (as salt: citrate)
3. CCNCCOCc1ccccc1CCC1=C(C(=O)OC)C(c2c(Cl)cccc2Cl)C(C(=O)OC)=C(CC(=O)N2CCN(C34CCCC(CC3)N4C)CC2)N1 (stereo not shown) (as salt: citrate)

1. 77 to 79 °C (dec.)
2. 158 to 160 °C (dec.)
3. 151 °C

Indicate the recorded melting point value for this compound: COC(=O)C1=C(CCc2ccccc2NS(=O)(=O)C(F)(F)F)NC(CC(=O)N2CCN(C3CC4CCC(C3)N4C)CC2)=C(C(=O)OC)C1c1c(Cl)cccc1Cl (stereo not shown) (as salt: HCl)
218 to 220 °C (dec.)

Origin of the recorded values: patent US6653313B2
